Numbers sourced from ChEMBL document CHEMBL3297708.

- method_summary: Half life in mouse liver microsomes
- Type: ADME

| compound | units_text | operator | half-life |
| --- | --- | --- | --- |
| CCc1nc2ccc(Cl)cn2c1C(=O)NCc1ccc(N2CCN(c3ccc(F)cc3)CC2)cc1 | min | = | 33.3 |
| CCc1nc2cc(Cl)ccn2c1C(=O)NCc1ccc(N2CCC(c3ccc(OC(F)(F)F)cc3)CC2)cc1 | min | > | 120 |
| CCc1nc2cc(Cl)ccn2c1C(=O)NCc1ccc(N2CCCCCC2)cc1 | min | = | 1.9 |
| CCc1nc2cc(Cl)ccn2c1C(=O)NCc1ccc(N2CCN(c3ccc(F)cc3)CC2)cc1 | min | = | 33.3 |
| CCCc1nc2ccccn2c1C(=O)NCc1ccc(-c2ccccc2)cc1 | min | = | 8.7 |
